Where these numbers come from: patent US10183913B2

# target.of.assay: human serotonin transporter (h-SERT) (Homo sapiens (Human), UniProt P31645)
# assay.details: [3H] citalopram binding assay to evaluate human serotonin reuptake inhibitory action (h-SERT binding assay)
# study.conditions: [3H] citalopram binding; read-out: Test Ex. 1: h-SERT binding inhibition constant Ki
pKi: −log10 of the molar value.
Listed here: items and their measured pKi.
metric.name: pKi

[[record]]
compound = "CNCc1cc(OCc2ccc(F)cc2)n(CC2(C(F)(F)F)CCCC2)n1"
metric_name = "pKi"
quantitative_result = 8.13

[[record]]
compound = "CNCc1cc(OCc2ccccc2)n(C(CF)C2CCCCC2)n1.Cl (stereo not shown) [Example 330, hydrochloride]"
metric_name = "pKi"
quantitative_result = 9.02

[[record]]
compound = "CNCc1cc(OCc2cc(F)ccc2F)n(CCC(C)(C)F)n1.Cl [Example 481, hydrochloride]"
metric_name = "pKi"
quantitative_result = 9.07

[[record]]
compound = "CNCc1cc(OCc2cc(F)ccc2F)n(Cc2ccc(F)cc2)n1"
metric_name = "pKi"
quantitative_result = 8.80

